- assay-system: HLA-A*24:02
- assay-info: IEDB peptide-MHC binding, purified MHC/competitive/fluorescence; filed as Kd, often an IC50 or EC50 that approximates it; bounds were set here for any values at or beyond the usual limits of such assays
- assay-setup: source organism: Rickettsia typhi str. Wilmington
property: pKd
Answer as the number alone; pKd is minus log10 of concentration in mol/L.

Req: Would you mind telling me what pKd value was observed for IYYWTAWLI ?
Resp: 8.77

====

- assay-system: HLA-A*32:07
- assay-info: IEDB peptide-MHC binding, purified MHC/competitive/fluorescence; filed as Kd, often an IC50 or EC50 that approximates it; bounds were set here for any values at or beyond the usual limits of such assays
- assay-setup: source organism: Bacillus anthracis str. A0488
property: Kd (nM)
Supply the numeric figure in nM, leaving out any unit text.

Req: Which Kd value belongs to RFFKHFMSL ?
Resp: 0.4

====

- assay-system: HLA-A*02:01
- assay-info: IEDB peptide-MHC binding, purified MHC/competitive/radioactivity; bounds were set here for any values at or beyond the usual limits of such assays
- assay-setup: source organism: Influenza A virus (A/Alaska/6/1977(H3N2))
property: IC50 (nM)
Only the number, expressed in nM, is required.

Req: Which measured IC50 value corresponds to AIMEKNIML ?
Resp: 104

====

- assay-system: HLA-A*03:01
- assay-info: IEDB peptide-MHC binding, purified MHC/direct/fluorescence; filed as Kd, often an IC50 or EC50 that approximates it; bounds were set here for any values at or beyond the usual limits of such assays
- assay-setup: source organism: Sudan virus - Boniface, Sudan,1976
pKd: −log10 of the molar value.
property: pKd

Req: Consider the sequence shown here: TMMRHRREL What is its recorded pKd?
Resp: ≤ 4.70

====

- assay-system: HLA-A*11:01
- assay-info: IEDB peptide-MHC binding, purified MHC/direct/fluorescence; filed as Kd, often an IC50 or EC50 that approximates it; bounds were set here for any values at or beyond the usual limits of such assays
- assay-setup: source organism: Homo sapiens
property: pKd
In simple prose, pKd is minus the logarithm base ten of a concentration in moles per litre.

Req: Please state recorded pKd (tested on HLA-A*11:01) of MCFHQHLMY
Resp: 5.08

====

- assay-system: HLA-B*27:05
- assay-info: IEDB peptide-MHC binding, purified MHC/competitive/fluorescence; filed as Kd, often an IC50 or EC50 that approximates it; bounds were set here for any values at or beyond the usual limits of such assays
- assay-setup: source organism: Escherichia coli B171
property: Kd

Req: Entry QTNLYNLLY : reported Kd = ?
Resp: ≥ 20 µM

====

# reported Kd; entries follow
- assay-system: HLA-B*51:01
- assay-info: IEDB peptide-MHC binding, purified MHC/direct/fluorescence; filed as Kd, often an IC50 or EC50 that approximates it; bounds were set here for any values at or beyond the usual limits of such assays
- assay-setup: source organism: Mycobacterium tuberculosis

Answered examples (2):
residue-sequence: SPRSRNRSF
assay-system: HLA-B*51:01
property: Kd
measured-value: ≥ 20 µM
--
residue-sequence: APAKKAAPA
assay-system: HLA-B*51:01
property: Kd
measured-value: ≥ 20 µM

Next sequence, Kd to be filled in.
Req: Recorded Kd for LPAEVRAAF , please?
Resp: ≥ 20 µM

====

- assay-system: HLA-A*02:01
- assay-info: IEDB peptide-MHC binding, purified MHC/competitive/fluorescence; bounds were set here for any values at or beyond the usual limits of such assays
- assay-setup: source organism: Sudan ebolavirus
property: IC50

Consider the reported IC50 for these sequences:
residue-sequence: GIAWIPYFG
IC50: 2.72 µM

residue-sequence: EWAFWENKK
IC50: ≥ 183 µM

Req: Name the reported IC50 value associated with the sequence PLGVVTNST
Resp: ≥ 114 µM

Req: And the next one, SSYYATSYL ?
Resp: 3.16 µM

Req: And for IIHDFIDNP ?
Resp: ≥ 85.4 µM

Req: Do the same for SQIPSSSPT please
Resp: 30 µM

====

- assay-system: HLA-A*02:01
- assay-info: IEDB peptide-MHC binding, purified MHC/competitive/radioactivity; filed as Kd, often an IC50 or EC50 that approximates it; bounds were set here for any values at or beyond the usual limits of such assays
- assay-setup: source organism: Hepatitis C virus (isolate 1)
property: Kd

Req: Item under review: RAAGLQDCTM . Reported Kd?
Resp: ≥ 50 µM

====

- assay-system: HLA-A*02:03
- assay-info: IEDB peptide-MHC binding, purified MHC/competitive/fluorescence; filed as Kd, often an IC50 or EC50 that approximates it; bounds were set here for any values at or beyond the usual limits of such assays
- assay-setup: source organism: Giardia lamblia ATCC 50803
property: Kd

Req: I have this sequence here, MARPADASM , and I need its recorded Kd.
Resp: ≥ 20 µM

====

- assay-system: HLA-A*02:01
- assay-info: IEDB peptide-MHC binding, purified MHC/direct/fluorescence; filed as Kd, often an IC50 or EC50 that approximates it; bounds were set here for any values at or beyond the usual limits of such assays
- assay-setup: source organism: Influenza A virus (A/Memphis/1/1986(H3N2))
pKd: −log10 of the molar value.
property: pKd

Req: Could you share what pKd was measured for NHDGIQAGV , tested on HLA-A*02:01?
Resp: ≤ 4.70

====

A collection of sequences and their measured pKd
- assay-system: HLA-B*53:01
- assay-info: IEDB peptide-MHC binding, purified MHC/competitive/radioactivity; filed as Kd, often an IC50 or EC50 that approximates it; bounds were set here for any values at or beyond the usual limits of such assays
- assay-setup: source organism: SARS coronavirus Tor2
Scale: negative log10 of molar concentration, which is what pKd denotes.

Req: Given the entry APAICHEGKA , report its measured pKd.
Resp: 4.76

Req: Now this one: IPTNFSISI
Resp: 7.97

====

- assay-system: HLA-A*68:02
- assay-info: IEDB peptide-MHC binding, purified MHC/competitive/fluorescence; filed as Kd, often an IC50 or EC50 that approximates it; bounds were set here for any values at or beyond the usual limits of such assays
- assay-setup: source organism: Mycobacterium leprae
property: Kd

Req: What value of Kd has been reported for the following sequence? TVGYMYIMK
Resp: ≥ 20 µM

====

- assay-system: HLA-A*02:17
- assay-info: IEDB peptide-MHC binding, purified MHC/competitive/radioactivity; filed as Kd, often an IC50 or EC50 that approximates it; bounds were set here for any values at or beyond the usual limits of such assays
- assay-setup: source organism: Dengue virus 4 Philippines/H241/1956
property: pKd
The read-out pKd is expressed as -log10 of concentration in moles per litre.

residue-sequence: TLLCLIPTA
measured-value: 5.02

// below: pKd requested for another sequence
Req: For the sequence TLMLVALLGA , what pKd is on record?
Resp: 4.96

====

- assay-system: HLA-A*03:01
- assay-info: IEDB peptide-MHC binding, purified MHC/competitive/radioactivity; filed as Kd, often an IC50 or EC50 that approximates it; bounds were set here for any values at or beyond the usual limits of such assays
- assay-setup: source organism: Mammarenavirus lassaense
property: Kd (µM)
Answer format: numeric, µM implied, no suffix.

Req: Entry VCSFYADPK , system HLA-A*03:01: what Kd was measured?
Resp: 3.84

====

- assay-system: HLA-B*51:01
- assay-info: IEDB peptide-MHC binding, purified MHC/competitive/fluorescence; filed as Kd, often an IC50 or EC50 that approximates it; bounds were set here for any values at or beyond the usual limits of such assays
- assay-setup: source organism: Campylobacter jejuni subsp. jejuni NCTC 11168 = ATCC 700819
pKd: −log10 of the molar value.
property: pKd

Req: Item under review: LELAEITAE . Reported pKd?
Resp: ≤ 4.70

====

- assay-system: HLA-A*29:02
- assay-info: IEDB peptide-MHC binding, purified MHC/competitive/radioactivity; filed as Kd, often an IC50 or EC50 that approximates it; bounds were set here for any values at or beyond the usual limits of such assays
- assay-setup: source organism: SARS coronavirus Tor2
# note: exactly 500 nM is not below, so it is 0; use 1 for Kd strictly under it

Observe how each entry below is paired with its result.
residue-sequence: IYNEKVAGF
class-name: 0
//
residue-sequence: AFLPFTLGI
class-name: 0
//
residue-sequence: FTERSDKSY
class-name: 1
//
residue-sequence: NKDGFLYVY
class-name: 0
//
residue-sequence: LFCLLNRYF
class-name: 0

Req: Does this sequence meet the criterion Kd < 500 nM? LFFFVYENAF
Resp: 1

Req: Cool, now HYVRITGLY
Resp: 1

Req: Do the same for VYDPLQPEL please
Resp: 1

Req: Repeat with PFVVSTGYHF
Resp: 1

Req: // same read-out, input: LTKHPNQEY
Resp: 0

Req: Follow-up item: LYIIKLVFL
Resp: 0
